# TEST_METHOD_NOTES: melting temperature; fluorescence melt of hairpins on a sequencing array, two-state fit, raised by 9.35 °C to match UV melts
# MEASUREMENT_PARAMETERS: sodium 0.088 M
Here, each record is paired with measured Tm data.
ASSAY_METRIC: Tm (°C)

{"columns": ["SEQUENCE", "MEASURE_UNIT", "ASSAY_RESULT"],
 "data": [
  ["GATCGAACTATCGATC ((((((....))))))", "°C", 50.3],
  ["GCTTGTCGAAAGACAGC (((.(((....))))))", "°C", 52.9],
  ["GCATGCGAAAGCAATTGC ((((((....)))..)))", "°C", 44.1],
  ["GGCTATGGAAACATAACC ((.((((....)))).))", "°C", 34.4],
  ["GGGGCGGGAAACCGCTCC ((.((((....)))).))", "°C", 66.9],
  ["GCTTGCGGAAACGCAGGC ((.((((....)))).))", "°C", 62.8],
  ["GATCGACAATTCGATC ((((((....))))))", "°C", 49.2],
  ["GTTGAGCGAAAGCTGAAC (((.(((....))).)))", "°C", 46.2],
  ["GTTGTTCCGAAAGGAAAC (((..(((....))))))", "°C", 49.1],
  ["GATCCCGTTCGGGATC ((((((....))))))", "°C", 67.8]
]}
